pIC50: −log10 of the molar value.
Values of pIC50 reported for Glycogen synthase kinase-3 beta (Homo sapiens, UniProt P49841) appear below.
Measured Endpoint: pIC50

| Molecule | Measured Endpoint | Reading |
| --- | --- | --- |
| CC(N)Cc1cc(Cl)cs1 (configuration not stated) | pIC50 | < 4.00 |
| CCSC1=NC(c2ccccc2)=NN(c2ccccc2)c2ccccc21 | pIC50 | < 4.00 |
| O=C(CBr)c1cc(Br)c(Br)s1 | pIC50 | 6.00 |
| CC(=O)c1ccccc1 | pIC50 | < 4.00 |
| CC(=O)c1ccc(Cl)cc1 | pIC50 | < 4.00 |
| O=C(Nn1c2ccccc2c2ccccc21)c1ccccc1 | pIC50 | < 4.00 |
| CCOC(=O)c1ccccc1 [ETHYL BENZOATE] | pIC50 | < 4.00 |
| O=C(CBr)c1scc(Br)c1Br | pIC50 | 6.00 |
| O=C(CCCCl)c1cc(Cl)sc1Cl | pIC50 | < 4.00 |
| O=C(CCCCl)c1ccc(Br)s1 | pIC50 | < 4.00 |
| O=C(CBr)c1ccc(Br)s1 | pIC50 | 6.00 |
| O=C(CBr)c1sc(Br)cc1Br | pIC50 | 6.00 |
